Biological target: T1, human RAMP2 co-expressed with human CRLR on CHO-K1 cells (hCR2-CHOK1) (human, UniProt O60895 43-175; Q16602 23-461)
T1 construct: whole, on cells; The antibodies are directed to RAMP2; also called hCRLR / hRAMP2-expressing CHO-K1 cells; membrane surface RAMP2 protein
T1 sequence (O60895 43-175, chain 1 of 2): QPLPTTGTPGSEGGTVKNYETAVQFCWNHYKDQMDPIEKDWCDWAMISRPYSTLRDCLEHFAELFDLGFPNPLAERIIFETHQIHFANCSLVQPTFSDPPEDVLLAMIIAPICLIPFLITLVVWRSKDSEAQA
T1 sequence (Q16602 23-461, chain 2 of 2): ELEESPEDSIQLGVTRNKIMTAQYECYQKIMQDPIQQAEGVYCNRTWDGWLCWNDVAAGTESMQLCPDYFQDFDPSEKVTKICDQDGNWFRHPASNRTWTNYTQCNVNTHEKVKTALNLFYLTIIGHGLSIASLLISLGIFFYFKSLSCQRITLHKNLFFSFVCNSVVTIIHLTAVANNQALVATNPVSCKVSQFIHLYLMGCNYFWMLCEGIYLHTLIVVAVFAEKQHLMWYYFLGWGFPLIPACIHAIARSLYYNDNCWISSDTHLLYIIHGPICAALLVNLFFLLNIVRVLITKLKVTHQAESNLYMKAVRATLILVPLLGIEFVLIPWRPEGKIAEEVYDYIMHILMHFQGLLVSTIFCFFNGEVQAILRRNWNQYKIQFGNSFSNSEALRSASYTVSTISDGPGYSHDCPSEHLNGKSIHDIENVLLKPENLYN
Test: Cell ELISA on fixed hCR2-CHOK1 cells, 1/10 serial dilution from 67 nM, anti-human IgG Fc-HRP, GraphPad Prism 7
readout_type: EC50

Given the entry h25H4-4F9v4 (antibody, V domains shown) VH: EVQLVQSGAEVKKPGATVKISCKVSGYSFTGYFMNWVQQAPGKGLESIGRNNPYNGDSIYNEKFQGRVTITADTSTDTAYMELSSLRSEDTAVYYCARLMIFDAYYAMDYWGQGTTVTVSS VL: DIQMTQSPSSLSASVGDRVTITCRASQDIRNYLNWYQQKPGKAVKLLIYYTSRLHSGVPSRFSGSGSGTDYTLTISSLQPEDIATYFCQQDSKHPWTFGQGTKLEIK , report its measured EC50. 1.83 nM

Record: h25H4-4F9v5 (antibody, V domains shown) VH: EVQLVQSGAEVKKPGATVKISCKVSGYSFTGYFMNWVQQAPGKGLESIGRNNPYNGDSIYNEKFQGRVTITADTSTDTAYMELSSLRSEDTAVYYCARLMIFDAYYAMDYWGQGTTVTVSS VL: DIQMTQSPSSLSASVGDRVTITCQASQDIRNYLNWYQQKPGKAVKLLIYYTSRLHSGVPSRFSGSGSGTDFTFTISSLQPEDIATYYCQQDSKHPWTFGQGTKLEIK 2.32 nM

Record: h85H7-2B11v2 (antibody, V domains shown) VH: QVQLVQSGAEVKKPGASVKMSCKASGYSFSGYFMNWVKQAPGQGLEWIGRINPYNGDTFYNQKFKGRATLTVDTSTSTTYMELSSLRSEDTALYYCARLGIYDVYHYVMENWGQGTTVTVSS VL: DIQMTQSTSSLSASLGDRVTITCRASQDIRNYLNWYQQKPGKTVKLLIYYTSRLHSGVPSRFSGSGSGTDYTLTISSLQQEDIATYFCQQDSKNPWTFGQGTKLEIK 0.24 nM
